# System: ATP;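 further: ATP exposure 15 min at 22 °C before imaging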
# protocol text: switch fluorescence ratio, 500 uM ATP over buffer (Cy3 cluster intensity, sum of 5 cycles each) (fold (ratio)); higher = stronger signal-on switching upon ATP binding; sequences stand for … in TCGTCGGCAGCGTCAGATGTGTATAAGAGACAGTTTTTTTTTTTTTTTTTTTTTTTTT…TC
# settings: aptamer strand: ATP DNA aptamer (quencher-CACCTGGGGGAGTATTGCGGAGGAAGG + anchor), 100 nM annealed; ATP concentration: 500 uM
Could you please report measured switch fluorescence ratio for the items listed next?
Give bare numbers.

Below, each entry is followed by its recorded switch fluorescence ratio result.
GATAAAGATA	1.02
TTGGCCGGAT	0.953
AATGGTAATT	0.995
ATTTAACGGG	1.01
CATGGTGTGG	1.01
TTAGCTTGTA	1.07
CGGAATAATT	1.04
ATAGACAGGC	1.04

Kindly give each listed record's switch fluorescence ratio.
1. GCGGGGTTGC
2. TGAAATTTTG
3. CCAAGCTGAA

1. 1.03
2. 1.01
3. 1.22

Kindly give each listed record's switch fluorescence ratio.
1. CAGGGGCGTG
2. AATCAGTTTG
3. CGCCATAGTG
4. GAAGGGCATT
5. GGGGGCAATG
6. CAATATTGCC
7. TTTGTTAATT

[0.992, 1.02, 1.01, 0.996, 1.13, 1.02, 0.996]

---

# Test system: ATP;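 further: ATP exposure 15 min at 22 °C before imaging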
# protocol text: switch fluorescence ratio, 500 uM ATP over buffer (Cy3 cluster intensity, sum of 5 cycles each) (fold (ratio)); higher = stronger signal-on switching upon ATP binding; sequences stand for … in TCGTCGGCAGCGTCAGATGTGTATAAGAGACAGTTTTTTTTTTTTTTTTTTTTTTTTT…TC
# settings: aptamer strand: ATP DNA aptamer (quencher-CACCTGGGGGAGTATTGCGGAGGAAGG + anchor), 100 nM annealed; ATP concentration: 500 uM
recorded metric: switch fluorescence ratio
Numbers only.

Below, each entry is followed by its recorded switch fluorescence ratio result.
TTTATGAAGC	1.06
TTGAGGTACT	0.971
ACATGGGTGC	1.11
AGTTTCTTAG	1.02
GGTGGGATTC	1.01

Kindly give each listed record's switch fluorescence ratio.
1. ATGGTTTATA
2. TGTAGGTGTT
3. GATTACATTT
4. ACAGTTTTGC

[0.977, 0.999, 1.03, 0.985]

Kindly give each listed record's switch fluorescence ratio.
1. CTATGGGGGG
2. GGTTTGGTCG
3. TGTTTAATGT

[0.993, 1.01, 1.01]

Kindly give each listed record's switch fluorescence ratio.
1. CCTAGGGTGT
2. GGGGGGGGGT
3. TGGTTCCAGT
4. CCTGGGTTAG
5. TAAGGTTCTC
6. ATGGAACCGT
7. CGATCTTTAC

1. 2.12
2. 1.01
3. 1
4. 0.998
5. 0.96
6. 1.02
7. 1.29

switch fluorescence ratio lookup needed for GACATGTAAA , thanks.
1.05

---

# System: ATP;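 further: ATP exposure 15 min at 22 °C before imaging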
# protocol text: switch fluorescence ratio, 500 uM ATP over buffer (Cy3 cluster intensity, sum of 5 cycles each) (fold (ratio)); higher = stronger signal-on switching upon ATP binding; sequences stand for … in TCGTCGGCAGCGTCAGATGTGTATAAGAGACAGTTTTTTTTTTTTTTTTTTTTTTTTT…TC
# settings: aptamer strand: ATP DNA aptamer (quencher-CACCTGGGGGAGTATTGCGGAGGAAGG + anchor), 100 nM annealed; ATP concentration: 500 uM
Could you please report measured switch fluorescence ratio for the items listed next?
Answers are plain numbers.

CCTGGCTATC	3.44

Kindly give each listed record's switch fluorescence ratio.
1. GGTGTAGCGC
2. CTAAATTAGT
3. TGACCGGAGT
4. AGGTGACGGT

1.01
0.995
1.03
0.981

Recorded values, source the supplement of paper PMC10126150.
